FYI, the data here is from paper PMC5706701.

Listed compounds paired with reported Z-score
# experimental target: Human IP6K1 (Homo sapiens)
# Construct: GST (N, cleaved yes); made in house; host or cells: C43 E. coli, pGEX-6P-2
# Sequence (Q92551 whole entry): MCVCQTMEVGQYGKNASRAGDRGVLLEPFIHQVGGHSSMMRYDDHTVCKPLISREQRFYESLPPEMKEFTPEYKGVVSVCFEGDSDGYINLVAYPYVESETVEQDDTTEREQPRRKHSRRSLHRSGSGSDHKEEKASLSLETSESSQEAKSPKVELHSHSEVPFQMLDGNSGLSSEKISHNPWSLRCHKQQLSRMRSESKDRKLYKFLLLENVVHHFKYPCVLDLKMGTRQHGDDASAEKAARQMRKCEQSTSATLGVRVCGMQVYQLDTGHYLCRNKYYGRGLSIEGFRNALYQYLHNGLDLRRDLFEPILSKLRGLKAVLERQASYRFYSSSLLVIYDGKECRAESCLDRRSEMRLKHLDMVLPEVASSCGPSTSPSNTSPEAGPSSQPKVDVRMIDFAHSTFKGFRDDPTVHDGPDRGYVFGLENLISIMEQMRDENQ
# assay info: IP6K1 high-throughput screen of the Sigma LOPAC (ADP-Glo Max, single point);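 note: final compound concentration 10µM in 5% DMSO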
# Format: biochemical
# conditions: Sigma LOPAC single-point screen; Z-score from plate average and StDev
Structures can show the parent of a compound that is named as a salt.
Just the number, please, no unit after it.

Nc1nc(SCc2ccc([N+](=O)[O-])cc2)c2ncn([C@@H]3O[C@H](CO)[C@@H](O)[C@H]3O)c2n1 :: 0.9053
O=C(O)Cc1c[nH]c2ccc(O)cc12 [5-Hydroxyindolacetic acid] :: 0.3678
O=c1ccn(C2OC(COP(=O)(O)OP(=O)([O-])O)C(O)C2O)c(=O)[nH]1.[Na+] (stereo not shown) [Uridine 5 -diphosphate sodium] :: 0.4354
O=C(O)CCCCC1CCSS1 (racemic) [(±)-alpha-Lipoic Acid] :: 0.6419
COc1cc(CC(=O)O)ccc1O [4-Hydroxy-3-methoxyphenylacetic acid] :: 0.6976
N[C@@H](COP(=O)(O)O)C(=O)O :: 0.9155
CC12NC(Cc3ccccc31)c1ccccc12.O=C(O)/C=C\C(=O)O (single isomer, unassigned; (+)) [(+)-MK-801 hydrogen maleate] :: 0.6324
CC1CCN=C(N)S1.Cl (racemic) [(±)-AMT hydrochloride] :: 1.329

Provide Z-score, recorded with Human IP6K1 (Homo sapiens), of CN(C)CCC=C1c2ccccc2C=Cc2ccccc21 [Cyclobenzaprine hydrochloride]
0.9199

Report Z-score under test system Human IP6K1 (Homo sapiens) for OC[C@H]1NC[C@H](O)[C@@H](O)[C@@H]1O [1-Deoxynojirimycin hydrochloride] .
0.7811

Report Z-score on Human IP6K1 (Homo sapiens) for this entry: CC(C)(C)NCC(O)c1cc(O)cc(O)c1.CC(C)(C)NCC(O)c1cc(O)cc(O)c1.O=S(=O)(O)O (stereo not shown) [Terbutaline hemisulfate]
0.6155

Supply Z-score measured with Human IP6K1 (Homo sapiens) for CC[C@@H]1C(=O)OC[C@@H]1Cc1cncn1C.Cl [(+)-Pilocarpine hydrochloride] .
0.5799

Enter recorded Z-score with Human IP6K1 (Homo sapiens) for Cl.Fc1ccc(CN(C2=NCCN2)c2c(Cl)cccc2Cl)cc1 [IMID-4F hydrochloride] here.
1.156

For Human IP6K1 (Homo sapiens), give the measured Z-score of the entry C[C@H](O)C(=O)C1=Nc2c(nc(N)[nH]c2=O)NC1 [Sepiapterin]
0.5302

Recall the reported Z-score of Br.Br.N=C(N)SCCc1cccc(CCSC(=N)N)c1 [1,3-PBIT dihydrobromide] on Human IP6K1 (Homo sapiens) and write it down.
1.133

Please indicate recorded Z-score of CNCC[C@H](Oc1ccc(C(F)(F)F)cc1)c1ccccc1.Cl [S-(+)-Fluoxetine hydrochloride] measured with Human IP6K1 (Homo sapiens).
0.6659

Recall the reported Z-score of Cl.c1ccc2nc(C3=NCCN3)ccc2c1 [BU224 hydrochloride] when tested on Human IP6K1 (Homo sapiens).
0.6446

###

# experimental target: Human IP6K1 (Homo sapiens)
# Construct: GST (N, cleaved yes); made in house; host or cells: C43 E. coli, pGEX-6P-2
# assay info: IP6K1 high-throughput screen of the Sigma LOPAC (ADP-Glo Max, single point);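 note: final compound concentration 10µM in 5% DMSO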
# Type: biochemical
# conditions: Sigma LOPAC single-point screen, ADP-Glo Max raw signal per well
Where a name gives a salt, the structure may show the parent alone.
reported property: Raw Signal
Form field (numeric): enter value without unit.

Check out these entries, answers already filled in.
CN(C)CCC(c1ccc(Cl)cc1)c1ccccn1.O=C(O)/C=C\C(=O)O (racemic) [(±)-Chlorpheniramine maleate] :: 60371
Cl.Cl.Clc1cccc(N2CCNCC2)c1 :: 60295
N[C@@H](Cn1oc(=O)[nH]c1=O)C(=O)O [(+)-Quisqualic acid] :: 59992

Annotate the molecule OC[C@H]1NC[C@H](O)[C@@H](O)[C@@H]1O [1-Deoxynojirimycin hydrochloride] with its measured Raw Signal.
59013

Indicate the recorded Raw Signal value for this molecule: O=C(O)[C@H]1CCCN[C@H]1C(=O)O (racemic)
60739

Provide measured Raw Signal value, entry: NNC(=O)c1ccc(O)cc1 [4-Hydroxybenzhydrazide]
59100

Quickly give me recorded Raw Signal for [Cl-].[Li+] [Lithium Chloride]
59222

Identify measured Raw Signal corresponding to CC[C@@]1(O)C(=O)OCc2c1cc1n(c2=O)Cc2cc3ccccc3nc2-1 [(S)-(+)-Camptothecin]
58626
